tested on: Puccinia recondita f. sp. tritici; assay: Test H: wheat leaf rust, test suspension sprayed after inoculation of wheat seedlings, visual disease rating; assay type: in vivo; details: 200 ppm; 100 = 100% disease control, 0 = no control relative to controls
The entries below are paired with their reported Test H disease control rating.
Numeric only. Scale: %

Reference set (2 entries):
>>> recorded_measurement("Fc1cc(F)c(-c2c(Cl)ncn2-c2cccc(OC(F)F)c2)c(F)c1 [compound 584]")
0
>>> recorded_measurement("COc1cc(OC)cc(-n2c(Cc3c(F)cc(F)cc3F)cnc2C)c1 [compound 533]")
15

Reported Test H disease control rating for Puccinia recondita f. sp. tritici, given CCOc1ccc(F)c(-c2c(Cl)nc(Cl)n2-c2ccc(Cl)cc2)c1F [compound 664] ?
46

Value wanted: Test H disease control rating (Puccinia recondita f. sp. tritici) of entry COc1ccc(Cl)c(-c2c(Cl)nc(C)n2-c2ccc(Cl)cc2)c1F [compound 550]
0

Test H disease control rating of Fc1cccc(-n2c(Cl)nc(Cl)c2-c2c(F)ccc(F)c2F)c1 [compound 366] on Puccinia recondita f. sp. tritici?
41

###

system: Alternaria solani; experiment: Test D: tomato early blight, sprayed the day before inoculation, visual disease rating; assay type: in vivo; conditions: 40 ppm (marked *); 100 = 100% disease control
Marks after values point to notes of the source that are not given here.
Endpoint Name: Test D disease control rating

Guide cases for Test D disease control rating, answers given:
>>> recorded_measurement("Cc1ccc(-n2c(Br)nc(Br)c2-c2c(F)ccc(F)c2F)cc1 [compound 461]")
"99* %"
>>> recorded_measurement("COc1cc(F)c(-c2c(Br)nc(C)n2-c2ccc(Cl)cc2)c(F)c1C [compound 59]")
"100* %"
>>> recorded_measurement("COc1cc(F)c(-c2c(Cl)nc(Br)n2-c2ccc(C)c(Cl)c2)c(F)c1 [compound 542]")
"96* %"
>>> recorded_measurement("Cc1nc(Br)c(-c2c(F)cccc2F)n1-c1ccc2c(c1)OCCO2 [compound 602]")
"91* %"
>>> recorded_measurement("Cc1ccc(-n2c(Cl)nc(Br)c2-c2c(F)ccc(F)c2F)cc1 [compound 465]")
"99* %"

Proceed to the following item.
Please provide the recorded Test D disease control rating for COC(=O)c1ccc(-n2cnc(Cl)c2-c2c(F)cccc2F)cc1 [compound 614] , tested on Alternaria solani.
0* %

###

test system: Septoria tritici; assay: Test G: wheat leaf blotch on wheat seedlings, sprayed the day before inoculation, visual disease rating; format: in vivo; details: 200 ppm; 100 = 100% disease control, 0 = no control relative to controls
Catalogue of Test G disease control rating values
Write down the numeric answer in % and omit the unit.

Before answering, review these 6 worked examples.
>>> recorded_measurement("Fc1cc(-n2c(Cl)nc(Cl)c2-c2c(F)ccc(F)c2F)ccc1Cl")
93
>>> recorded_measurement("COc1cc(F)c(-c2c(-c3ccc(I)cc3)c(OC)nn2C)c(F)c1")
98
>>> recorded_measurement("Fc1ccc(Br)c(F)c1-c1c(Cl)ncn1-c1ccc(Cl)cc1")
95
>>> recorded_measurement("COc1ccc(F)c(-c2c(C)nc(Cl)n2-c2ccc(Cl)nc2)c1F")
100
>>> recorded_measurement("COc1ccc(F)c(-c2c(Br)nc(Br)n2-c2ccc(C)cc2)c1F")
99
>>> recorded_measurement("N#Cc1ccc(F)c(-c2c(Cl)nc(Cl)n2-c2ccc(Cl)cc2)c1F")
96

What value of Test G disease control rating has been reported for the following compound? `COc1cc(F)c(-c2c(Cl)nc(Br)n2-c2ccccc2)c(F)c1Br`
99

Tell me the measured Test G disease control rating of `Fc1cccc(Cl)c1-c1c(Cl)nc(C(F)(F)F)n1-c1ccc(Cl)cc1` , please.
0

I am curious: what Test G disease control rating value has been reported for `Fc1cc(F)cc(-n2c(Br)nc(Cl)c2-c2c(F)cccc2F)c1` ?
87
